target: TDP-43 full-length (UniProt Q13148 1-414); assay: EMSA; EMSA: 10 mM HEPES pH 8.0, 50 mM KCl, 1 mM EDTA, 5% glycerol, 1 mM DTT, 40 U/ml RNase inhibitor, 4 C, 1 h; 20 fmol probe in 20 ul; 8% native PAGE; conditions: protein: recombinant; tags: MBP-6xHis (C-terminal as named TDP-43-MBP-6xHis); label: 5'-biotin; 3'-32P pCp
Sequence (Q13148 whole entry): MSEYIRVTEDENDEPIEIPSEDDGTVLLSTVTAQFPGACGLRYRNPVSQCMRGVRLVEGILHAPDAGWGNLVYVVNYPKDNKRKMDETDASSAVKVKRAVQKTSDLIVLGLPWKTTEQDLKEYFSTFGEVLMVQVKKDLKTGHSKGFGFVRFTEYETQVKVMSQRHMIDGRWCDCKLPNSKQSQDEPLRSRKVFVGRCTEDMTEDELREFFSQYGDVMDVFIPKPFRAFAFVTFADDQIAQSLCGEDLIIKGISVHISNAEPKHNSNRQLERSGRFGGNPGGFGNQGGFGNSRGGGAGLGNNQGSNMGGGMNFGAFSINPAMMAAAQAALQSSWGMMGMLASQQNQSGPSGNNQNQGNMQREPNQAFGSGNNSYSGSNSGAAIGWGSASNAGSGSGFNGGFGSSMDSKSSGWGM
measurement type: pKd
Please keep in mind that pKd is minus log10 of the molar concentration; only the number is needed.

binder: CCGUUCCGCCCAGGCCGCGCCCAGCUGGAAUGCA (ssRNA, m1A at position 12) [m1A RNA probe]
pKd: 7.74

binder: CCGUUCCGCCCAGGCCGCGCCCAGCUGGAAUGCA (ssRNA) [Control RNA probe (rA)]
pKd: 7.42

Consider now this further binder.
Can you look up the measured pKd of CCGUUCCGCCCAGGCCGCGCCCAGCUGGAAUGCA (ssRNA, m6A at position 12) [m6A RNA probe] for me?
7.34
